- assay system: murine macrophage iNOS (Mus musculus, UniProt P29477)
- Sequence (P29477 whole entry): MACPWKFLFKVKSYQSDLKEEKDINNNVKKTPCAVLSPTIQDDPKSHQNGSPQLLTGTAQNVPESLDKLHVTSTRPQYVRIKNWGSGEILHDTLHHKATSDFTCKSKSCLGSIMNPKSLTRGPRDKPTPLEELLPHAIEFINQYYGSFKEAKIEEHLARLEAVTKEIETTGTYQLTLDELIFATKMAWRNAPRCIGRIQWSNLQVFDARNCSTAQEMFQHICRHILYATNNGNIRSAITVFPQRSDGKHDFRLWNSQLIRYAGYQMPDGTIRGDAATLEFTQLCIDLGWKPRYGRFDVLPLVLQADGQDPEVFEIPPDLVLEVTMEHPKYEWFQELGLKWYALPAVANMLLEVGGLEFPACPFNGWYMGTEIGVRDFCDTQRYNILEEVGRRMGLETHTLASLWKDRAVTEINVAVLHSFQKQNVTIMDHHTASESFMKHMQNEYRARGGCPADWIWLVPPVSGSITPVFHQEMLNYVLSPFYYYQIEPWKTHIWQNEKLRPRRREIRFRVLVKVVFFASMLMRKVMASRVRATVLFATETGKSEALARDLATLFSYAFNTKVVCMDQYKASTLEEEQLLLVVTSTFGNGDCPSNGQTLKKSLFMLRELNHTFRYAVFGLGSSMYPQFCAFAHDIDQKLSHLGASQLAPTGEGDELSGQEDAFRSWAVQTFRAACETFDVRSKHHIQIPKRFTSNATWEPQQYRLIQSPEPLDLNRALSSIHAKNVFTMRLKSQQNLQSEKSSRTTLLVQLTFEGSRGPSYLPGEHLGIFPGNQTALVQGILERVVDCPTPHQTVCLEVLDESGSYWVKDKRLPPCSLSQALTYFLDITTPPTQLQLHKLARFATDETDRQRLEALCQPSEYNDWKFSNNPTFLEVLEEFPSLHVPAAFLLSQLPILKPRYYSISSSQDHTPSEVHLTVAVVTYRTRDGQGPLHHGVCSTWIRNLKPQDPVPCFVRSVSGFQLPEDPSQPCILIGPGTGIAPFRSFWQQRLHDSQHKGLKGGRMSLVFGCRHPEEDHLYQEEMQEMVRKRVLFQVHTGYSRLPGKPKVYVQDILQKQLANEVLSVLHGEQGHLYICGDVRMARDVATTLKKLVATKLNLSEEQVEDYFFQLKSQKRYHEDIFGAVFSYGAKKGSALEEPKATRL
measured quantity: pKi
Friendly reminder that pKi comes from taking -log10 of the concentration in mol/L.

Recorded pKi for Cc1cc(N)nc(C[C@@H]2CNC[C@@H]2OCCNC2CC2c2cccc(Cl)c2)c1 (mixture of isomers) [(±) 2d] , please?
6.07

Please answer likewise for Cc1cccc(C2CC2NCCO[C@H]2CNC[C@H]2Cc2cc(C)cc(N)n2)c1 (mixture of isomers) [(±) 2c]
5.00

Next compound: Cc1cc(N)nc(C[C@@H]2CNC[C@@H]2OCCNC(C)Cc2cccc(F)c2)c1.Cl (mixture of isomers) [(±) 2e]
4.99

Next up: Cc1cc(N)nc(C[C@@H]2CNC[C@@H]2OCCN[C@H]2C[C@@H]2c2cccc(F)c2)c1 [Compound 2b]
4.92
